protocol_summary: Hygroscopicity by dynamic moisture adsorption (DVS)
Format: physicochemical
condition_info: 25° C./80% RH, 0% RH-95% RH adsorption curve
Where a name gives a salt, the structure may show the parent alone.
Listed compounds paired with reported moisture adsorption value (moisture uptake)
measured_quantity: moisture adsorption value (moisture uptake) (%)

> print(dat)
                                   compound  readout.unit  numeric.value
1  CNCc1ccc(NS(=O)(=O)c2ccsc2)c(-c2ccco2)c1 [sulfate crystal form D]             %            1.3
2  CNCc1ccc(NS(=O)(=O)c2ccsc2)c(-c2ccco2)c1 [succinate crystal form E]             %            0.6
3  CNCc1ccc(NS(=O)(=O)c2ccsc2)c(-c2ccco2)c1 [fumarate crystal form B]             %            0.2
4  CNCc1ccc(NS(=O)(=O)c2ccsc2)c(-c2ccco2)c1 [free crystal form A]             %            1.6
5  CNCc1ccc(NS(=O)(=O)c2ccsc2)c(-c2ccco2)c1 [malate crystal form F]             %            1.4
6  CNCc1ccc(NS(=O)(=O)c2ccsc2)c(-c2ccco2)c1 [hydrochloride crystal form C]             %            5.5

---

protocol_summary: Solid-state stability (HPLC purity and crystal form by XRPD after storage)
Assay type: physicochemical
condition_info: solid state, open, 40 °C/75% RH/open, 1 week; HPLC
measured_quantity: HPLC purity after storage at 168 h (%)

> print(dat)
                                   compound  numeric.value
1  CNCc1ccc(NS(=O)(=O)c2ccsc2)c(-c2ccco2)c1 [fumarate crystal form B]           98.4

---

protocol_summary: Solid-state stability (HPLC purity and crystal form by XRPD after storage)
Assay type: physicochemical
condition_info: solid state, open, 40 °C/75% RH/open, 4 weeks; HPLC
Method: About 10 mg of each solid form of the compound was weighed and added to the HPLC vial, respectively, the bottleneck was sealed with a sealing film, and 10 small holes were made on the film. The vial was placed in 25° C./60% RH and 40° C./75% RH environment for 4 weeks, samples were taken in the 1st week, the 2nd week and the 4th week respectively, the purity (by HPLC analysis) and crystal form (by X ray powder diffraction analysis) of the sample were investigated.
measured_quantity: HPLC purity after storage at 672 h (%)

> print(dat)
                                   compound  numeric.value
1  CNCc1ccc(NS(=O)(=O)c2ccsc2)c(-c2ccco2)c1 [free crystal form A]           98.1

---

protocol_summary: Solid-state stability (HPLC purity and crystal form by XRPD after storage)
Assay type: physicochemical
condition_info: 25 °C/60% RH/open, 4 weeks; HPLC; 40320 min
Structures can show the parent of a compound that is named as a salt.
Listed compounds paired with reported Purity
measured_quantity: Purity (area %)

> print(dat)
                                    compound  numeric.value
 1  CNCc1ccc(NS(=O)(=O)c2ccsc2)c(-c2ccco2)c1 [Malonate crystal form K]          98.59
 2  CNCc1ccc(NS(=O)(=O)c2ccsc2)c(-c2ccco2)c1 [free crystal form A]           98.1
 3  CNCc1ccc(NS(=O)(=O)c2ccsc2)c(-c2ccco2)c1 [Phosphate crystal form G]          98.04
 4  CNCc1ccc(NS(=O)(=O)c2ccsc2)c(-c2ccco2)c1 [malate crystal form F]          98.79
 5  CNCc1ccc(NS(=O)(=O)c2ccsc2)c(-c2ccco2)c1 [benzene sulfonate crystal form J]          98.82
 6  CNCc1ccc(NS(=O)(=O)c2ccsc2)c(-c2ccco2)c1 [sulfate crystal form D]          98.78
 7  CNCc1ccc(NS(=O)(=O)c2ccsc2)c(-c2ccco2)c1 [hydrochloride crystal form C]          98.87
 8  CNCc1ccc(NS(=O)(=O)c2ccsc2)c(-c2ccco2)c1 [Tartrate crystal form H]           98.6
 9  CNCc1ccc(NS(=O)(=O)c2ccsc2)c(-c2ccco2)c1 [Pyroglutamate crystal form I]          98.57
10  CNCc1ccc(NS(=O)(=O)c2ccsc2)c(-c2ccco2)c1 [succinate crystal form E]          98.94

All values here come from patent US20260297068A1.
